B1: Hairpin Ribozyme (parent)
chain: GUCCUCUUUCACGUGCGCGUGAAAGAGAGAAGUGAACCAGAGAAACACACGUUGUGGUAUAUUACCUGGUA

Variants of: B1
Assay: self-cleavage, relative activity (ratio to wild type); higher = more cleavage; co-transcriptional
reported_property: self-cleavage
In your answer, state the number alone without any accompanying words.

In the examples that follow, each entry is paired with its recorded self-cleavage.
GUCCUCUUUCACGUGCGCGUGAAAGAGAGAAGUGAACGAGAGAAACGCACGUUGUGGUAUAUUACCUGGUA [C38G A47G] = 0.116
CUCCUCUGUCACGUGCGCGUGAAAGAGAGAAGUGAACCAGAGAAACACACGUUGUGGUAUAUUACCUGGUA [G1C U8G] = 0.216
GUCCUCGUUCACGUGCGCGUGAAAGAGAGAAGUGAACCAGAGAAACACACGUUGGGGUAUAUUACCUGGUA [U7G U55G] = 0.215
GUCCUCUUUCACGUUCGCGUGAAAGAGAGAAGUGAACCAGAGAAACACACGUUGUGGUAUAUUACCUUGUA [G15U G68U] = 0.329
GUCCUCUUUCACGUGCGCGUGAAAGAGAGAAGUGAACCAGAUAAACACACGUUGUGUUAUAUUACCUGGUA [G42U G57U] = 0.187
GACCUCUUUCACGUGCGCGUGAAAGAGAGAAGUGAACCAGAGAGACACACGUUGUGGUAUAUUACCUGGUA [U2A A44G] = 0.119

INPUT: Can you share its self-cleavage? I mean this variant: GUCCUCUUUCACGUGUGCGUGAAAGAUAGAAGUGAACCAGAGAAACACACGUUGUGGUAUAUUACCUGGUA [C16U G27U]
OUTPUT: 0.198

INPUT: If you can, please state the reported self-cleavage value of GUCCUCUUUCACGUGCGCGUGAAAGAGAGAAGGGAACCAGAGAAGCACACGUUGUGGUAUAUUACCUGGUA [U33G A45G] .
OUTPUT: 0.0332

INPUT: Quick check: self-cleavage of GUCCUCUUUCACGUGCGCUUGAAAGAGAGAAGUGAACCAGAGAAACACACGUUGUGGUCUAUUACCUGGUA [G19U A59C] ?
OUTPUT: 0.242

INPUT: Give the measured self-cleavage of GUCCUCUUUCACGUGCGCGUGAAAGCGAGAAGUGAACCAGAGAAACACACGCUGUGGUAUAUUACCUGGUA [A26C U52C] .
OUTPUT: 0.811

INPUT: Dear colleague, I am looking for the recorded self-cleavage of the following variant: GUCCUCUUUCACGUGCGCGUGAAAGAGAGAAGUGAACCAGAGAAAGACACGUUGUGGUAUGUUACCUGGUA [C46G A61G]
OUTPUT: 0.126

INPUT: For the variant GUCCUCUUUCACGUGCGCGUGAAAGAGAGAAGUGAAGCAGAGAAAUACACGUUGUGGUAUAUUACCUGGUA [C37G C46U] , what self-cleavage is on record?
OUTPUT: 0.122

INPUT: Recorded self-cleavage of GUCCUCUUUCACGUGCGCGUGAAAAAGAGAAGUGAGCCAGAGAAACACACGUUGUGGUAUAUUACCUGGUA [G25A A36G] , please.
OUTPUT: 0.605

INPUT: Fill in the blank: the reported self-cleavage of GUCCUCUUUCACGUGCGCGUGAAAGAUAGAAGUGAACCAGAGGAACACACGUUGUGGUAUAUUACCUGGUA [G27U A43G] is ____.
OUTPUT: 0.169

INPUT: # query: self-cleavage of entry GUCCUCUUUCAUGUGCGCGUGGAAGAGAGAAGUGAACCAGAGAAACACACGUUGUGGUAUAUUACCUGGUA [C12U A22G]
OUTPUT: 0.748

INPUT: Can you look up the measured self-cleavage of GUCCUCCUUCACGUGCGCGUGAAAGGGAGAAGUGAACCAGAGAAACACACGUUGUGGUAUAUUACCUGGUA [U7C A26G] for me?
OUTPUT: 0.667

INPUT: Returns the measured self-cleavage for the input variant. Input: GUCCUCUUUCACGUCCGCGUGAAAGAGAGAAGUGAACCAGAGAAACACACGUUGUGGUCUAUUACCUGGUA [G15C A59C]
OUTPUT: 0.146

INPUT: Dear colleague, I am looking for the recorded self-cleavage of the following variant: GUCCUCUUUCACGUGCGCGUGAAAGAGAGAAGAAAACCAGAGAAACACACGUUGUGGUAUAUUACCUGGUA [U33A G34A]
OUTPUT: 0.0987

INPUT: Reported self-cleavage, variant GUCCUCUUUCACGUGCGCGUGAAACAGAGAAGUGAACCAGACAAACACACGUUGUGGUAUAUUACCUGGUA [G25C G42C] : ____
OUTPUT: 0.236

INPUT: Entry GUCCUCUUUCACGUGCGCGUGAAAGAGAGAAGUGAACCAGAGAAAGGCACGUUGUGGUAUAUUACCUGGUA [C46G A47G] has what self-cleavage?
OUTPUT: 0.136

INPUT: // query self-cleavage value for entry GUCCUCUUUCACCUGCGCGUGAAAGAGAGACGUGAACCAGAGAAACACACGUUGUGGUAUAUUACCUGGUA [G13C A31C]
OUTPUT: 0.227

INPUT: Which self-cleavage is reported for this variant? GUCCUCGUUCACGUGCGCGUGAAAGAGAGAAGUGAACCAGCGAAACACACGUUGUGGUAUAUUACCUGGUA [U7G A41C]
OUTPUT: 0.863

INPUT: Recorded self-cleavage for GUCCUCUUUCACGUGCGCGUGAAAGAGAGAAGUGAACCAGAAAAACACACGUUGUGGUAUAUUACCUUGUA [G42A G68U] , please?
OUTPUT: 0.144

INPUT: # lookup: self-cleavage of GUCCUCUUUCACGUGCGCGUGAAAGAGCGAGGUGAACCAGAGAAACACACGUUGUGGUAUAUUACCUGGUA [A28C A31G]
OUTPUT: 0.333
